system: Wolbachia pipientis; assay: Anti-Wolbachia Cell-Based Screen; format: functional; design: scale not given: in the data most compounds retested in dose-response had high values; details: 5 µM
About 13,000 (27%) of roughly 48,000 compounds showed an effect of 50% or more. Some of the results follow.
Field: Percent Effect. Provide a value for each of the molecules that follow.
Answers are plain numbers, in %.

Example cases with answers are listed next.
{"molecule": "Cc1cnn(C2CCCN(C(=O)c3ccc(C(N)=O)cn3)C2)c1 (centres undefined)", "unit of measure": "%", "Percent Effect": 85.91}
{"molecule": "Cc1cnn(C2CCCN(C(=O)C3=NN(C)C(=O)CC3)C2)c1 (centres undefined)", "unit of measure": "%", "Percent Effect": 5.956}
{"molecule": "O=C(CNc1nc(C2CC2)ns1)N1CCc2sccc2C1", "unit of measure": "%", "Percent Effect": -3.427}
{"molecule": "CSc1ncccc1C(=O)N1CCC2(CC1)c1nc[nH]c1CCN2C", "unit of measure": "%", "Percent Effect": 9.792}
{"molecule": "Cc1cc(C(=O)NCc2ccc(F)cc2)c2c(C3CCNC3)noc2n1 (centres undefined)", "unit of measure": "%", "Percent Effect": 105.3}

Required: Percent Effect, one value per molecule below.
1. COCCNC(=O)Cn1cc2c(n1)c(C)nn2C(C)C
2. Cc1cc(C2CCCN2C(=O)NCc2cccc(F)c2)on1 (centres undefined)

(A)
92.82
-2.715

For each entry beneath this line, provide reported Percent Effect.
1. Clc1cc(N2CCN(C3CCOCC3)CC2)nc2[nH]ccc12
2. CNC(=O)c1ccc(C(=O)N2CCCC(n3cc(C)cn3)C2)cn1 (centres undefined)
3. CCn1nccc1CNC(=O)Cn1cc2c(n1)c(C)nn2C(C)C
4. Cc1cnn(C2CCCN(C(=O)c3ccn(C)c(=O)c3)C2)c1 (centres undefined)
5. Cc1nc(C)n(C2CCCN(C(=O)c3ccc(NC4CC4)nc3)C2)n1 (centres undefined)
6. CCn1nccc1CNC(=O)C(C)n1cc2c(n1)c(C)nn2C (centres undefined)

(A)
109.8
-2.2
116.7
-5.065
0.453
13.18

# per-item lookup of Percent Effect; items listed below
1. Clc1cc(N2CCC(N3CCCC3)CC2)nc2[nH]ccc12
2. Cc1cnn(C2CCCN(C(=O)c3ccc4c(c3)CCC4)C2)c1 (centres undefined)
3. Cc1cnn(C2CCCN(C(=O)COc3ccc(C(N)=O)cc3)C2)c1 (centres undefined)
4. Cc1cc(C(=O)Nc2cc(C3CC3)n[nH]2)c2c(C)nn(C)c2n1
5. CCn1nccc1CNC(=O)C1CCCC1

(A)
1: 113; 2: 100.4; 3: -8.397; 4: 94.33; 5: 10.33

Source of measurements: ChEMBL document CHEMBL3988442
